# experimental.system: beta-catenin/TCF4 engagement (Homo sapiens, UniProt P35222)
# Construct: expressed in transfected cells; host or cells: HEK293
# Sequence (P35222 whole entry): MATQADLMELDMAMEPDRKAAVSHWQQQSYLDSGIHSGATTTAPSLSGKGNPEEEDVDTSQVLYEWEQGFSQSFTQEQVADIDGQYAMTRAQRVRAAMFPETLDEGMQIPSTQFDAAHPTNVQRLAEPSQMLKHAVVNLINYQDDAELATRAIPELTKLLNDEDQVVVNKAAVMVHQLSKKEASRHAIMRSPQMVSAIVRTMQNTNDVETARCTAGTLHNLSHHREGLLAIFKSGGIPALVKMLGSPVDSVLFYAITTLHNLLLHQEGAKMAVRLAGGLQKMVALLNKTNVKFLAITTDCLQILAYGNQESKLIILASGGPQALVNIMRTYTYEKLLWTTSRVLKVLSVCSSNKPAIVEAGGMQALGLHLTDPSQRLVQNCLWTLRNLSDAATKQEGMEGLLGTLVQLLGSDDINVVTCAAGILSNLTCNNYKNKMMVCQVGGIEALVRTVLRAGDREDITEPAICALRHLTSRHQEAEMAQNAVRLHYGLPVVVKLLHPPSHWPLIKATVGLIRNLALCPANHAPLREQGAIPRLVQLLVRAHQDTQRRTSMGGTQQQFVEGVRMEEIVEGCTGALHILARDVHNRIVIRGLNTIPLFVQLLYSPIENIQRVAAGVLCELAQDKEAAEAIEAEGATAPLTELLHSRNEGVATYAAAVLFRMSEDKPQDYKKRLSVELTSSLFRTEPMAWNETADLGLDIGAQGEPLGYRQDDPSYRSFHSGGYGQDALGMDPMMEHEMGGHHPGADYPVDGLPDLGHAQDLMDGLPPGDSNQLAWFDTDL
# experiment.summary: Nano-BRET target engagement assay (B-cat-Halo & TCF4-Luc in HEK293 cells)
# Format: cell-based
# assay.setup: read-out: NanoBRET Abs IC50
reported.property: pIC50
# pIC50: negative log10 of molar concentration; output just the value

Return reported pIC50 for target or system beta-catenin/TCF4 engagement (Homo sapiens, UniProt P35222), item CC(=O)N1CCC[C@]12CC=CCCCC1(CCCC=CCCCCCC[C@@](C)(C(=O)N[C@@H](Cc3ccccc3Cl)C(=O)N[C@@H](Cc3csc4ccccc34)C(=O)N[C@@H](CCC(N)=O)C(N)=O)NC(=O)[C@H](CC(N)=O)NC(=O)[C@H](Cc3ccccc3)NC(=O)[C@H](C)NC(=O)[C@H](C)NC(=O)[C@H](CN(CC(=O)O)CC(F)(F)F)NC(=O)[C@H](CC(=O)O)NC1=O)NC(=O)[C@H](CC(C)(C)C)NC(=O)[C@H](CC(=O)O)NC2=O (stereo partly drawn) .
4.99

Return reported pIC50 for target or system beta-catenin/TCF4 engagement (Homo sapiens, UniProt P35222), item CC(=O)N1CCC[C@]12CC=CCCCC1(CCCC=CCCCOC(=O)N3CC[C@@](C(=O)N[C@@H](Cc4ccsc4)C(=O)N[C@@H](Cc4csc5ccccc45)C(=O)N[C@@H](CCC(N)=O)C(N)=O)(C3)NC(=O)[C@H](CC(C)C)NC(=O)[C@H](Cc3ccccc3)NC(=O)[C@H](C)NC(=O)[C@H](C)NC(=O)[C@H](CN(CC(=O)O)CC(F)(F)F)NC(=O)[C@H](CC(=O)O)NC1=O)NC(=O)[C@H](CC(C)(C)C)NC(=O)[C@H](CC(=O)O)NC2=O (stereo partly drawn) .
5.44
